These data points were gathered from ChEMBL document CHEMBL1817635.

Parameter: Activity. Scope: all listed entries.
tested on: Escherichia coli; assay: Inhibition of Escherichia coli DdlB assessed as residual activity of the enzyme assessed as orthophosphate formation at 250 uM after 20 mins by malachite green reagent method
The answer is to be given in %; state only the numeric part.

Some entries whose results are on file:
INSERT INTO measurements (compound, experimentalsystem, observedproperty, measureunit, recordedvalue) VALUES
  ('COc1cc(Nc2c3ccc(Cl)cc3nc3ccc(OC)cc23)c2ncccc2c1', 'Escherichia coli', 'Activity', '%', 25),
  ('COc1ccc2nc3cc(Cl)ccc3c(Nc3ccc(O)c(CN(CCCl)CCCl)c3)c2c1', 'Escherichia coli', 'Activity', '%', 22),
  ('COc1ccc2nc3cc(Cl)ccc3c(Nc3ccc(C(O)CCN(C)C)cc3)c2c1 (stereo not given)', 'Escherichia coli', 'Activity', '%', 38),
  ('COc1ccc2nc3cc(Cl)ccc3c(Nc3ccc(O)c(CN4CCCC4)c3)c2c1', 'Escherichia coli', 'Activity', '%', 20),
  ('COc1cc(NCCCNc2c3ccc(Cl)cc3nc3ccc(OC)cc23)c2ncccc2c1', 'Escherichia coli', 'Activity', '%', 13),
  ('CCCCCCCCN(CCCCCCCC)Cc1cc(Nc2c3ccc(Cl)cc3nc3ccc(OC)cc23)ccc1O', 'Escherichia coli', 'Activity', '%', 86);

// returns reported Activity for input CCN(CC)Cc1cc(Nc2c3ccc(Cl)cc3nc3ccc(OC)cc23)ccc1O 46

// returns reported Activity for input CCN(CC)Cc1cc(Nc2c3ccc(Cl)cc3nc3c(OC)ccc(Cl)c23)ccc1O 40

// returns reported Activity for input COc1ccc2nc3cc(Cl)ccc3c(NCCNc3c4ccc(Cl)cc4nc4ccc(OC)cc34)c2c1 27

// returns reported Activity for input C=CCc1cc(Nc2c3ccc(Cl)cc3nc3ccc(OC)cc23)cc(CN(CC)CC)c1O 27
